measured target: recombinant human FAPα (rhFAPα) (Homo sapiens (Human), UniProt Q12884)
Sequence (Q12884 whole entry): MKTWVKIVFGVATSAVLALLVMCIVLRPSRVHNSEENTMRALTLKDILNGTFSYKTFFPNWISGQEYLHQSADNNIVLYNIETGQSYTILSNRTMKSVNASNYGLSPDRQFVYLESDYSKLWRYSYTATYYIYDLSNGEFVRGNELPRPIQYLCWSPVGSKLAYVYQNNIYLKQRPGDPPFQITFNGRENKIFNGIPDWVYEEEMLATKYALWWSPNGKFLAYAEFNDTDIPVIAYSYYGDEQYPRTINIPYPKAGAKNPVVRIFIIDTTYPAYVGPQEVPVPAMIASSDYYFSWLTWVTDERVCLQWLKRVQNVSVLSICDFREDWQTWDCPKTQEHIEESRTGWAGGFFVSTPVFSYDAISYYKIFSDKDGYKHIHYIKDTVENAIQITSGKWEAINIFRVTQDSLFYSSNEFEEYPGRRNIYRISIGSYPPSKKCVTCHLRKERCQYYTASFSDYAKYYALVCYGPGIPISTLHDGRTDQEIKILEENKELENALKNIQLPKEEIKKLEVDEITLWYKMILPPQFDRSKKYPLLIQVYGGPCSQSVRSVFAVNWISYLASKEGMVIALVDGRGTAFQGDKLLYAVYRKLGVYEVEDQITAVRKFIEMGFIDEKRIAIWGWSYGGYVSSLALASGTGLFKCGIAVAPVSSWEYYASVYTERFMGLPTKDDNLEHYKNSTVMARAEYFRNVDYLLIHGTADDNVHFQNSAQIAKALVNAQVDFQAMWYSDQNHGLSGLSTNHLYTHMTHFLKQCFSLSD
assay procedure: FAPα enzymatic exopeptidase (dipeptidase) activity assay, Z-Gly-Pro-AMC
Assay type: biochemical
experimental context: 1 μM test compound; exopeptidase; Table 3B; read-out: rhFAPα (% exo inh @ 1 μM)
Each entry below lists one item and its recorded inhibition at 1 µM value.
quantity kind: inhibition at 1 µM

test smiles | test value
N#C[C@@H]1CC(F)(F)CN1C(=O)CNC(=O)c1ccnc2ccc(/C=C/c3ccc4[nH]ncc4c3)cc12 | > 50%
C[C@H](NC(=O)c1ccnc2ccc(-c3ccc(Cl)cc3)cc12)C(=O)N1CC(F)(F)C[C@H]1C#N | < 25%
Cc1ccc(-c2ccc3nccc(C(=O)NCC(=O)N4CC(F)(F)C[C@H]4C#N)c3c2)cn1 | > 50%
CC(C)[C@H](NC(=O)c1ccnc2ccc(-c3ccc(Cl)cc3)cc12)C(=O)N1CC(F)(F)C[C@H]1C#N | < 25%
N#C[C@@H]1CC(F)(F)CN1C(=O)CNC(=O)c1ccnc2ccc(-c3ccc(C4CC4)nc3)cc12 | > 50%

###

measured target: recombinant human DPPIV (rhDPPIV) (Homo sapiens (Human), UniProt P27487)
Sequence (P27487 whole entry): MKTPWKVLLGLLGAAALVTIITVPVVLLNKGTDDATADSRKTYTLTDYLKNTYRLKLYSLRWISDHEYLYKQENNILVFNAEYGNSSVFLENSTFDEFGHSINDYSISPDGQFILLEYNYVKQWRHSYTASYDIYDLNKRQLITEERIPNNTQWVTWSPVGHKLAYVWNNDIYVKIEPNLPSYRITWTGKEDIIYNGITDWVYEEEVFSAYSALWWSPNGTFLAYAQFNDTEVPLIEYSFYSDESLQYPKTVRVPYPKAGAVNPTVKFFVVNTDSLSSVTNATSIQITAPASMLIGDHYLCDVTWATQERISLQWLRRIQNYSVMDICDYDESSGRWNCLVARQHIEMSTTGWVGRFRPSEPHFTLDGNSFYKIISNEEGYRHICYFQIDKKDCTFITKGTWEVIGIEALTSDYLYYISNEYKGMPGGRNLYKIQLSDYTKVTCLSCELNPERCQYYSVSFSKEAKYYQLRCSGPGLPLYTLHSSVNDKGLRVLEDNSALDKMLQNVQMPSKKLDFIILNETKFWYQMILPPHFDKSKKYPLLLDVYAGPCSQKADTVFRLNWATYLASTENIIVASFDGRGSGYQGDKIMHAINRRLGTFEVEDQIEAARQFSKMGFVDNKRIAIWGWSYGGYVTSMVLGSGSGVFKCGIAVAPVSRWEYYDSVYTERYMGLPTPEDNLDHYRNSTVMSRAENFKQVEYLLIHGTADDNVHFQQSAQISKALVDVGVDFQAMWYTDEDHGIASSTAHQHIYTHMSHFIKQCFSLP
assay procedure: DPPIV enzymatic activity assay
experimental context: Table 3B
pIC50: −log10 of the molar value.
quantity kind: pIC50

test smiles | test value
CNC(=O)c1ccc(-c2ccc3nccc(C(=O)NCC(=O)N4CC(F)(F)C[C@H]4C#N)c3c2)cc1F | < 5.00
N#C[C@@H]1CC(F)(F)CN1C(=O)CNC(=O)c1ccnc2ccc(-c3ccc4c(c3)C(=O)NCC4)cc12 | 5.00 to 6.00
Cn1ccc2cc(-c3ccc4nccc(C(=O)NCC(=O)N5CC(F)(F)C[C@H]5C#N)c4c3)ccc21 | 5.00 to 6.00
N#C[C@@H]1CC(F)(F)CN1C(=O)CNC(=O)c1ccnc2ccc(/C=C/c3ccccn3)cc12 | < 5.00
CN(C)c1ccc2cc(-c3ccc4nccc(C(=O)NCC(=O)N5CC(F)(F)C[C@H]5C#N)c4c3)ccc2c1 | < 5.00

###

measured target: recombinant human DPPIV (rhDPPIV) (Homo sapiens (Human))
assay procedure: DPPIV enzymatic activity assay
experimental context: Table 3B
Each entry below lists one item and its recorded IC50 value.

test smiles | measured target | IC50
COC(=O)/C=C/c1ccc2nccc(C(=O)NCC(=O)N3CC(F)(F)C[C@H]3C#N)c2c1 | recombinant human DPPIV (rhDPPIV) (Homo sapiens (Human)) | > 10 µM
CC(C)C/C=C/c1ccc2nccc(C(=O)NCC(=O)N3CC(F)(F)C[C@H]3C#N)c2c1 | recombinant human DPPIV (rhDPPIV) (Homo sapiens (Human)) | > 10 µM
C[C@H](NC(=O)c1ccnc2ccc(-c3ccc(Cl)cc3)cc12)C(=O)N1CC(F)(F)C[C@H]1C#N | recombinant human DPPIV (rhDPPIV) (Homo sapiens (Human)) | > 10 µM
N#C[C@@H]1CC(F)(F)CN1C(=O)CNC(=O)c1ccnc2ccc(-c3ccncc3)cc12 | recombinant human DPPIV (rhDPPIV) (Homo sapiens (Human)) | > 10 µM
C[C@H](NC(=O)c1ccncc1-c1ccccc1)C(=O)N1CC(F)(F)C[C@H]1C#N | recombinant human DPPIV (rhDPPIV) (Homo sapiens (Human)) | > 10 µM
COc1ccc(-c2ccc3nccc(C(=O)NCC(=O)N4CC(F)(F)C[C@H]4C#N)c3c2)cc1 | recombinant human DPPIV (rhDPPIV) (Homo sapiens (Human)) | 1 to 10 µM
C[C@@H](NC(=O)c1ccncc1-c1ccccc1)C(=O)N1CC(F)(F)C[C@H]1C#N | recombinant human DPPIV (rhDPPIV) (Homo sapiens (Human)) | > 10 µM
N#C[C@@H]1CC(F)(F)CN1C(=O)CNC(=O)c1ccnc2ccc(/C=C/c3ccncc3)cc12 | recombinant human DPPIV (rhDPPIV) (Homo sapiens (Human)) | 1 to 10 µM
N#C[C@@H]1CC(F)(F)CN1C(=O)CNC(=O)c1ccnc2ccc(/C=C/c3ccccc3)cc12 | recombinant human DPPIV (rhDPPIV) (Homo sapiens (Human)) | > 10 µM
